Please respond with reported AUC/dose for every item in the list.
system: Rattus norvegicus; assay: Dose normalized AUC in Sprague-Dawley rat at 3 mg/kg, po; format: ADME, organism-based; set-up: dose 3 mg/kg, route oral; details: in vivo
One number for each entry, in µM·h/mg/kg.

>  <Compound structure>
CC(C)N1C(=O)[C@H](NC(=O)[C@@H](Cc2ccccc2F)NC(=O)c2ccc(F)cc2C(F)(F)F)CCc2cc(C(F)(F)F)ccc21

>  <Target or test system>
Rattus norvegicus

>  <AUC/dose, µM·h/mg/kg>
0.6

$$$$
>  <Compound structure>
CC(C)N1C(=O)[C@H](NC(=O)[C@@H](Cc2ccccc2OC(F)(F)F)NC(=O)OC(C)(C)C)CCc2cccc(F)c21

>  <Target or test system>
Rattus norvegicus

>  <AUC/dose, µM·h/mg/kg>
0.39

$$$$
>  <Compound structure>
CC(C)N1C(=O)[C@H](NC(=O)[C@@H](Cc2ccccc2F)NC(=O)c2ccc(F)cc2C(F)(F)F)CCc2c(F)c(F)cc(F)c21

>  <Target or test system>
Rattus norvegicus

>  <AUC/dose, µM·h/mg/kg>
1

$$$$
>  <Compound structure>
CC(C)N1C(=O)[C@H](NC(=O)[C@@H](Cc2ccccc2OC(F)(F)F)NC(=O)OC(C)(C)C)CCc2ccccc21

>  <Target or test system>
Rattus norvegicus

>  <AUC/dose, µM·h/mg/kg>
0.31

$$$$
>  <Compound structure>
CC(C)N1C(=O)[C@H](NC(=O)[C@@H](Cc2ccccc2F)NC(=O)c2ccc(F)cc2C(F)(F)F)CCc2cc(Cl)cc(F)c21

>  <Target or test system>
Rattus norvegicus

>  <AUC/dose, µM·h/mg/kg>
0.93

$$$$

Ask: Endpoint output: AUC/dose of CC(C)N1C(=O)[C@H](NC(=O)[C@@H](Cc2ccccc2F)NC(=O)c2ccc(F)cc2C(F)(F)F)CCc2cc(F)cc(F)c21 . Value?
Reply: 0.42

###

test system: Rattus norvegicus; test: Dose normalized AUC in Sprague-Dawley rat at 3 mg/kg, po; format: ADME, organism-based; set-up: dose 3 mg/kg, route oral; conditions: in vivo
Please respond with reported AUC/dose for every item in the list.
Give bare numbers, in µM·h/mg/kg.

>  <Molecule>
CC(C)N1C(=O)[C@H](NC(=O)[C@@H](Cc2ccccc2F)NC(=O)C2CC2C(F)(F)F)CCc2c(F)c(F)cc(F)c21 (some centres undefined)

>  <Measure unit>
µM·h/mg/kg

>  <AUC/dose>
0.79

$$$$

For every item below, please supply its AUC/dose.
1. CC(C)N1C(=O)[C@H](NC(=O)[C@@H](Cc2ccccc2OC(F)(F)F)NC(=O)OC(C)(C)C)CCc2cc(C(F)(F)F)ccc21
2. CC(C)N1C(=O)[C@H](NC(=O)[C@@H](Cc2ccccc2F)NC(=O)c2ccc(F)cc2C(F)(F)F)CCc2cc(F)ccc21
3. CC(C)N1C(=O)[C@H](NC(=O)[C@@H](Cc2ccccc2OC(F)(F)F)NC(=O)OC(C)(C)C)CCc2ccc(C(F)(F)F)cc21

Reply:
1. 0.41
2. 0.45
3. 0.22

###

Please respond with reported inhibition at 2 h, 10 µM for every item in the list.
target: hERG (KCNH2) (Homo sapiens); assay: Displacement of [35S]-MK0499 from human ERG expressed in HEK293 cell membranes at 10 uM after 2 hrs by liquid scintillation counting analysis relative to control; conditions: membranes of HEK293 cells that express human ERG, probe [35S]-MK0499
Sequence (Q12809 whole entry): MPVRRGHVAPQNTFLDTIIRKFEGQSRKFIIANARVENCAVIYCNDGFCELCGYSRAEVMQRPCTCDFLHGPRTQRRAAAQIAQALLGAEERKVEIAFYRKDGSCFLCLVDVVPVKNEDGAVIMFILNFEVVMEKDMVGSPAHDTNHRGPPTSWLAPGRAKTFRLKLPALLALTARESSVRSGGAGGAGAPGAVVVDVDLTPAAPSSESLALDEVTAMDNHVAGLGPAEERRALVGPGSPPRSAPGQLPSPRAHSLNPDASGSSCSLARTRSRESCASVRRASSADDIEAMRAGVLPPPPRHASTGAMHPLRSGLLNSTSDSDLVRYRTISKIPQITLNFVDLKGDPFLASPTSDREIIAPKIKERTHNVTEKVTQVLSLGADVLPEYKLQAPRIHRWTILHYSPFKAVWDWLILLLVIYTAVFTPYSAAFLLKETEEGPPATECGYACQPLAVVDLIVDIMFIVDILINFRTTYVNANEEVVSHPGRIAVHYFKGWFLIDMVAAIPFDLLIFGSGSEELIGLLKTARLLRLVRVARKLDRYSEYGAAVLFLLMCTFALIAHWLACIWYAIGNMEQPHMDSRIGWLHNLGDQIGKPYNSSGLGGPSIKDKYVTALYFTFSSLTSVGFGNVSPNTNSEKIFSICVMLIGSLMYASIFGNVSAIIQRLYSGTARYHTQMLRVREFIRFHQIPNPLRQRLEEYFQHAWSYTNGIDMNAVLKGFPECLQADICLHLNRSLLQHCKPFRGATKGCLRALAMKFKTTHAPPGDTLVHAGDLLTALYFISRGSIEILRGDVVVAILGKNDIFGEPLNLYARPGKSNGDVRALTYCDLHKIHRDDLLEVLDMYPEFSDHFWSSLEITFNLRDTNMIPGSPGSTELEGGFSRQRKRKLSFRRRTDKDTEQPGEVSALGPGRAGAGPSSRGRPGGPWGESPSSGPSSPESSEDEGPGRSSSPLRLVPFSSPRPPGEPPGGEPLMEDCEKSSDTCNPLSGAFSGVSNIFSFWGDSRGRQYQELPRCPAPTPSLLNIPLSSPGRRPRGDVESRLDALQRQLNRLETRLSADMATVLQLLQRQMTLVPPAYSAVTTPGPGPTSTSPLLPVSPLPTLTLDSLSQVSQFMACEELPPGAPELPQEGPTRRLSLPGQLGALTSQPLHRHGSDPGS
Answers are plain numbers, in %.

The cases that follow already have their inhibition at 2 h, 10 µM on record.
>  <Compound>
CC1CC1N1C(=O)[C@H](NC(=O)[C@@H](Cc2ccccc2F)NC(=O)c2ccc(F)cc2C(F)(F)F)CCc2c(F)c(F)cc(F)c21 (some centres not stated)

>  <Target or test system>
hERG (KCNH2) (Homo sapiens)

>  <Measure unit>
%

>  <inhibition at 2 h, 10 µM>
44

$$$$
>  <Compound>
CC(C)N1C(=O)[C@H](NC(=O)[C@@H](Cc2ccccc2OC(F)(F)F)NC(=O)OC(C)(C)C)CCc2ccc(C(F)(F)F)cc21

>  <Target or test system>
hERG (KCNH2) (Homo sapiens)

>  <Measure unit>
%

>  <inhibition at 2 h, 10 µM>
19

$$$$
>  <Compound>
CC(C)N1C(=O)[C@H](NC(=O)[C@@H](Cc2ccccc2F)NC(=O)c2ccc(F)cc2C(F)(F)F)CCc2cc(F)ccc21

>  <Target or test system>
hERG (KCNH2) (Homo sapiens)

>  <Measure unit>
%

>  <inhibition at 2 h, 10 µM>
36

$$$$
>  <Compound>
CC(C)N1C(=O)[C@H](NC(=O)[C@@H](Cc2ccccc2F)NC(=O)c2ccc(F)cc2C(F)(F)F)CCc2cc(C(F)(F)F)ccc21

>  <Target or test system>
hERG (KCNH2) (Homo sapiens)

>  <Measure unit>
%

>  <inhibition at 2 h, 10 µM>
10

$$$$
>  <Compound>
CC(C)N1C(=O)[C@H](NC(=O)[C@@H](Cc2ccccc2OC(F)(F)F)NC(=O)OC(C)(C)C)CCc2cccc(F)c21

>  <Target or test system>
hERG (KCNH2) (Homo sapiens)

>  <Measure unit>
%

>  <inhibition at 2 h, 10 µM>
24

$$$$

For every item below, please supply its inhibition at 2 h, 10 µM.
1. CC(C)N1C(=O)[C@H](NC(=O)[C@@H](Cc2ccccc2F)NC(=O)c2ccccc2C(F)(F)F)CCc2c(F)c(F)cc(F)c21
2. CC(C)N1C(=O)[C@H](NC(=O)[C@@H](Cc2ccccc2F)NC(=O)c2ccc(F)cc2C(F)(F)F)CCc2c(F)c(F)cc(F)c21

Reply:
10
20

# credit: ChEMBL document CHEMBL2390921
